System: MDA-MB-231 cells
Experiment: Combination effect of STX-1159 and mTOR inhibitor, WST-8 assay
Type: cell-based, Human
Details: in combination with STX-1159, 48 hours
parameter: CI

>>> measured("Nc1ccc(-c2ccc3ncc4ccc(=O)n(-c5cccc(C(F)(F)F)c5)c4c3c2)cn1 [Torin 2]")
0.66
>>> measured("CC(C)n1nc(-c2cc3cc(O)ccc3[nH]2)c2c(N)ncnc21 [PP242]")
0.84
>>> measured("CNC(=O)c1cccc(-c2ccc3c(N4CCOC[C@@H]4C)nc(N4CCOC[C@@H]4C)nc3n2)c1 [AZD2014]")
0.51
>>> measured("COc1ccc(-c2ccc3c(N4CCOCC4)nc(N4C[C@@H](C)O[C@@H](C)C4)nc3n2)cc1CO [KU-0063794]")
0.36

Each recorded value in this set is attributed to patent US20220008409A1.
